TARGET_OR_TEST_SYSTEM: tetanus neurotoxin (TeNT), authentic tetanus holotoxin (Clostridium tetani, UniProt P04958 2-1315)
Sequence (P04958 2-457 limits assumed, chain 1 of 2): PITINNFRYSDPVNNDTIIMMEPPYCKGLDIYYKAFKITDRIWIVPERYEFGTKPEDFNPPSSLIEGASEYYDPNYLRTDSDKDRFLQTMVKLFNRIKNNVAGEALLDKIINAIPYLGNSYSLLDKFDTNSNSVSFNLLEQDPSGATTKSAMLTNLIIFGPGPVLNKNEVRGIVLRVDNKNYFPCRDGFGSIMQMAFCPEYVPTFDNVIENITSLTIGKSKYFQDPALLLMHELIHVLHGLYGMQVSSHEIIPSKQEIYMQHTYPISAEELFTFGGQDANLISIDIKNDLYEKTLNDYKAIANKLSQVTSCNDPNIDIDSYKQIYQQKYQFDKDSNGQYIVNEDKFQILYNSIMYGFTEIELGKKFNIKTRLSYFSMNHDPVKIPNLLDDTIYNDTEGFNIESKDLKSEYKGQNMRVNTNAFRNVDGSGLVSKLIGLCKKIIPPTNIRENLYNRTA
Sequence (P04958 458-1315 limits assumed, chain 2 of 2): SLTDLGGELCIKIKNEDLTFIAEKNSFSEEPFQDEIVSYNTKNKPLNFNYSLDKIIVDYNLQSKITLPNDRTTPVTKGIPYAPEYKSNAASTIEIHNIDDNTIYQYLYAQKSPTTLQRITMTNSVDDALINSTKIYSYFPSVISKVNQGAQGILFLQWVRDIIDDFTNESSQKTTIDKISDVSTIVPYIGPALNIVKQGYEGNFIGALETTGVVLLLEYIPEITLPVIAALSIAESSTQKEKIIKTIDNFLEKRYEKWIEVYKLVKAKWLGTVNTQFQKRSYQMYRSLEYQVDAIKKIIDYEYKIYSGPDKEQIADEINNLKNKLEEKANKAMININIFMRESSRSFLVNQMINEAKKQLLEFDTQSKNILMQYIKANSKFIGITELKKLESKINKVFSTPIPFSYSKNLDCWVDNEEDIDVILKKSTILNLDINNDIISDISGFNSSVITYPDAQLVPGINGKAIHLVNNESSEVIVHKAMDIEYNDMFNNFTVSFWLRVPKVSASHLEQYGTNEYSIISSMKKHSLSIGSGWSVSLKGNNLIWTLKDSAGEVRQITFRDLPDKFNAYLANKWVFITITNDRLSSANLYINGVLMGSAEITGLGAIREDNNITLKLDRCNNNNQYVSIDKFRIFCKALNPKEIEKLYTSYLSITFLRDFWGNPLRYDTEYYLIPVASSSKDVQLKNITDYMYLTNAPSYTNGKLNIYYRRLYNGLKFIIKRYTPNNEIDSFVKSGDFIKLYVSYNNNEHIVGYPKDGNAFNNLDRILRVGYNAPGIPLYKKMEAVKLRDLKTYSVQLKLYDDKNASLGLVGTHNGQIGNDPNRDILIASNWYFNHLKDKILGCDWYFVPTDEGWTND
ASSAY_METHOD_TEXT: ELISA, directly coated TeNT, biotinylated binder
Recorded EC resulting in A450 0.4 values for a group of binders are listed next.
Expressed in ng/mL, but write only the number.

Example entries and their recorded answers appear below.
SVT05L (VHH) VHH: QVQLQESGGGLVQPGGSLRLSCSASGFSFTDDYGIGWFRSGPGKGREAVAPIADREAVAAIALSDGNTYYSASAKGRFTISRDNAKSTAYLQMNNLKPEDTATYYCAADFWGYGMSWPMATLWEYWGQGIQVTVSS :: 0.98
SVT22L (VHH) VHH: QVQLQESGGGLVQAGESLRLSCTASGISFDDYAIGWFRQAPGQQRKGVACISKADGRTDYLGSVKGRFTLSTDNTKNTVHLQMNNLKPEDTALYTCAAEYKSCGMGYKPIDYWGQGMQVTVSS :: 1.3

Asked: Fill in the blank: the reported EC resulting in A450 0.4 of SVT15L-3FW4M (VHH) VHH: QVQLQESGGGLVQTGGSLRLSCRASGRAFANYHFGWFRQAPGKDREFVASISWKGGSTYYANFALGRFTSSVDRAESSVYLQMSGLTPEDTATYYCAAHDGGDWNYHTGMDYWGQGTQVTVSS is ____.
Given back: 2

Asked: # get_value(readout='EC resulting in A450 0.4', item= SVT31L (VHH) VHH: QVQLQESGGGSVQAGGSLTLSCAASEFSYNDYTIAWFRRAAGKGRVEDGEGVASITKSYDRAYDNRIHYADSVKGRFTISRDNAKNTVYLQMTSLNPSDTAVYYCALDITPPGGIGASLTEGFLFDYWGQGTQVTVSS )
Given back: 0.98

Asked: Entry SVT08L (VHH) VHH: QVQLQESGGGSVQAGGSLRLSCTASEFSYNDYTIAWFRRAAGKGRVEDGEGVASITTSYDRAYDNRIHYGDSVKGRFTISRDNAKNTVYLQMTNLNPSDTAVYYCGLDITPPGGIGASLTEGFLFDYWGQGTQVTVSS : reported EC resulting in A450 0.4 = ?
Given back: 0.4
